assay-name: yeast display, Sf9 membrane polyspecificity reagent, FACS + sequencing; frameworks hold sequencing errors

sequence-string: QVQLVESGGGLVQAGGSLRLSCAASGSTFGGNAMGWYRQAPGKEREFVAAISYSGGSTYYADSVKGRFTISRDNAKNTVYLQMNSLKPEDTAVYYCAATGEPPVFRNGYWGQGTQVTVSS
polyreactivity (PSR sort gate): low polyreactivity

sequence-string: QVQLVESGGGLVQAGGSLRLSCAASGITFKSNAMGWYRQAPGKERELVAAISRRASSTYYADSVKGRFTISRDNAKNTVYLQMNSLKPEDTAVYYCNAVLPVYRTNMDYWGQGTQVTVST
polyreactivity (PSR sort gate): high polyreactivity

sequence-string: QVQLVESGGGLVQAGGSLRLSCAASGIIFFWNAMGWYRQAPGKERELVAAISSGGSTFADSVKGRFTISRDNAKNTVYLQMNSLKPEDTAVYYCAARFYHGYRPYIAIYGYGYWGQGTQVTVSS
polyreactivity (PSR sort gate): low polyreactivity

sequence-string: QVQLVESGGGLVQAGGSLRLSCAASGLIFPYYAMGWYRQAPGKERELVAAISYRGSRTYYADSVKGRFTISRDNAKNTVYLQMNSLKPEDTAVYYCIAGVSGRDNYWGQGTQVNVSS
polyreactivity (PSR sort gate): high polyreactivity

sequence-string: QVQLVESGGGLVQAGGSLRLSCAASGSTFYIYAMGWYRQAPGKERELVAAITWSGSRTYYADSVKGRFTISRDNAKNTVYLQMNSLKPEDTAVYYCAARSYRNNRYKEDYWGQGTQVTVSS
polyreactivity (PSR sort gate): high polyreactivity

###

assay-name: yeast display, Sf9 membrane polyspecificity reagent, FACS + sequencing; frameworks hold sequencing errors
endpoint-label: polyreactivity (PSR sort gate)

sequence-string: QVQLVESGGGLVQAGGSIRLSCAASGNTFRWYAMGWYRQAPGKEREFVAAISSSGGSTYYADSVKGRFTISRDNAKNTVYLQMNSLKPEDTAVYYCTAASVTRHVSFATDYEYWGQGTQVTVSS
val: high polyreactivity

sequence-string: QVQLVESGGGLVQAGGSLRLSCAASGSTFYRNAMGWYRQAPGKEREFVAAISFRGGGTYADSVKGRFTISRDNAKNTVYLQMNSLKPEDTAVYYCAADHLSYRRRYEYWGLGTQVTVSS
val: low polyreactivity

sequence-string: QVQLVESGGGLVQAGGSLRLSCAASGRILPFNAMGWHRQAPGKERELVDAIRWRGSSTYYADSVKGRFTISRDNAKNTVYLQMNSLKPEDTAVYYCAAPSSVRGKVISADYGYWGQGTQVTVSS
val: high polyreactivity

sequence-string: QVQHVESGGGIVQAGGSLRLSCAASGRTYAINAMGSYRQAPGKEMELLASITTRDSSTYYADSVKGRFTISRDNAKNTVYLQMKSLIPDDTAVYYCAKVKLVTYLYRLFVYGSYYWGLGTQVTVSS
val: low polyreactivity

sequence-string: QVQLVESGGGLVQAGGSLRLSCAASGSNFRPYAMGWYRQAPGKERELVAAISSSGGSTYYADSVKGRFTISGDNAKHTVYLQMNSLKPEDTAVYYCAKDGVSFYWLNKYYYWGQGTQVTVSS
val: low polyreactivity

sequence-string: QVQLVESGGGLVQAGGSLRLSCAASGRILLTYAMGWYRQAPGKERELVAAISSDSRTYYADSVKGRFTISRDNAKNTVYLQMNSLIPEDTAVYYCVRRRYKYDYWGQGTQVTVSS
val: low polyreactivity

sequence-string: QVQLVESGGGLVQAGGSLRLSCAASGRIFTTNTMGWYRQAPGKERELVARITYSGTSTYYADSVKGRFTISRDNAKNTVYLQMNSLKPEDTAVYYCAAKVWWRKYLLQDYYYWGQGTQVTVSS
val: high polyreactivity

sequence-string: QVQLVESGGGLVQAGGSLRLSCAASGSIFEYNVMGWYRQAPGKERELVAAINSGGSTYYADSVKGRFTISRDNAKNTVYLQMNSLKPEDTAVYYCAARQRPNRYGYYYWGQGTQVTVSS
val: high polyreactivity

sequence-string: QVQLVESGGGLVQAGGSLRLSCAASGSILGANVMGWYRQAPGKERELVASISKSGGNTFYADSVKGRFTISRDNAKNTVYLQLNRLKPEDTAVYYCAKRAHRYSYRYTYDYWGQGTQVTVSS
val: low polyreactivity

sequence-string: QVQLVESGGGLVQAGGSLRLSCAASGIIFRRNAMGWYRQAPGKERELVATISRSGGSTYYADSVKGRFTISRYNAKNTVYLQMNSLKPEDTAVYYCNTLYPRPYAINPRDYWGQGTQVTVSS
val: high polyreactivity

sequence-string: QVQLVESGGGLVQAGGSLRLSCAASGRIFSFYAMGWYRQAPGKERELVATISDGGATTYYADSVKGRFTISRDNAKNTVYLQMNSLKPEDTAVYYCNARRESYYQRYRVDYWGQGTQVTVSS
val: low polyreactivity
